The values you see were collected from patent US20080221060A1.

# maps each entry to its log10(Ki)
target: adenosine receptors (rat striatal membranes, [3H]-CGS21680) (Rattus norvegicus, UniProt P30543); experiment: Ki from displacement of [3H]-CGS21680 in rat striatal membranes at pH 5.5 and pH 7.4; assay type: binding; design: from tissue; host or cells: rat striatum (membranes); conditions: pH 7.4; 2 nM [3H]-CGS21680, 90 minutes at 22° C.; read-out: (Ki) nM (pH 7.4)
Sequence (P30543 whole entry): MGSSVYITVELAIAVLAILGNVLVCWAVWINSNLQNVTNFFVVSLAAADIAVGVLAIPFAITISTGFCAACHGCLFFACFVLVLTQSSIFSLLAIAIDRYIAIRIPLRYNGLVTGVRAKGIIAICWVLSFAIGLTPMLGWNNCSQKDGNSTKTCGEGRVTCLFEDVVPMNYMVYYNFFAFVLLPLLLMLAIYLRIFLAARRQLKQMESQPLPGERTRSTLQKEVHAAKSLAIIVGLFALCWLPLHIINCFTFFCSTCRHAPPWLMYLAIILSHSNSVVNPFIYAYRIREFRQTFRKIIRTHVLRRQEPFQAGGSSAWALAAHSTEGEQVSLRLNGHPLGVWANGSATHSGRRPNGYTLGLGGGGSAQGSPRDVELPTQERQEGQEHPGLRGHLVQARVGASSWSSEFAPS
Form field - Quantity: Ki; Unit: nM; Scale: log10

Below: 5 compounds and their reported log10(Ki).
{"compound": "Cc1nc2c(N)nc(NC3CCCCC3)nc2n1[C@@H]1O[C@H](CO)[C@@H](O)[C@H]1O", "log10(Ki)": 3.59}
{"compound": "CCCCOc1nc(N)c2ncn([C@@H]3O[C@H](CO)[C@@H](O)[C@H]3O)c2n1", "log10(Ki)": 2.45}
{"compound": "CCCCCCOc1nc(N)c2ncn([C@@H]3O[C@H](CO)[C@@H](O)[C@H]3O)c2n1", "log10(Ki)": 3.18}
{"compound": "CC[C@H](C)Nc1nc(N)c2ncn(C3OC(CO)C(O)C3O)c2n1 (stereo partly drawn)", "log10(Ki)": 3.15}
{"compound": "NC(=O)c1nc(N)c2ncn([C@@H]3O[C@H](CO)[C@@H](O)[C@H]3O)c2n1", "log10(Ki)": 2.79}

Problem: log10(Ki) for COc1ccc(Nc2nc(N)c3ncn([C@@H]4O[C@H](CO)[C@@H](O)[C@H]4O)c3n2)cc1 ?
Result: 1.74

Problem: Proceed to Nc1nc(Oc2ccccc2)nc2c1ncn2[C@@H]1O[C@H](CO)[C@@H](O)[C@H]1O
Result: 3.40
